Test system: LOX IMVI melanoma
assay protocol: NCI-60 one-dose screen, 48 h
test context: 10 µM unless noted
Compounds without any hit were thinned out: in the full panel of roughly 83,000, 20% have a hit. Active and inactive are the calls of the source. How the source made its calls: active means growth percent below 10; inactive means the rest.
Outcome codes: 1 for active, 0 for inactive

| compound | target of assay | class |
| --- | --- | --- |
| CCCCCCNC(=O)Oc1ccc(/C(=C(/C)Cc2ccc(OC)cc2)c2ccc(OCCN3CCCCC3)cc2)cc1 | LOX IMVI melanoma | 0 |
| CC1C(=O)CCCC1=O | LOX IMVI melanoma | 0 |
| COc1ccc(C(O)(c2ccccc2)C(C(=O)O)c2ccccc2)cc1 (stereo unspecified) | LOX IMVI melanoma | 0 |
| C/C(=N\Nc1cccc(Cl)n1)c1ccccn1 | LOX IMVI melanoma | 1 |
| CCOC(=O)c1csc(-c2ccc(COC(=O)c3ccccc3)o2)n1 | LOX IMVI melanoma | 0 |
| N#Cc1c(N)nc(Nc2nc3ccccc3[nH]2)nc1-c1ccc(Cl)cc1 | LOX IMVI melanoma | 0 |
